For each of the molecules below, state its pIC50.
Target: mouse HER2 (23-653) (Mus musculus, UniProt P70424)
Assay: TR-FRET competition assay for peptide potency, mouse HER2
Format: binding
Design: mouse HER2 (23-653) using a Cy5 labeled peptide as a probe; made in house; host or cells: mammalian cells
Conditions: moHER2 TR-FRET IC50, TR-FRET competition with Cy5 labeled peptide probe, 0.1 nM mouse HER2, 24 h incubation
Where a name gives a salt, the structure may show the parent alone. Starred links: 1 amine or outer side, 2 acyl side, 3 side chain; linkers in the order of their positions; H or OH if unused. Positions of bridges follow the written chain, without caps; N, C: chain ends. Non-standard residues stand in square brackets, D forms with d. Residues, ends and D or L forms follow the SMILES beside them. Trp(5-OH) = N[C@@H](Cc1c[nH]c2ccc(O)cc12)C(=O)O; NMePhe(4-F) = CN[C@@H](Cc1ccc(F)cc1)C(=O)O; NMehPhe = CN[C@@H](CCc1ccccc1)C(=O)O; X3 = NC[C@H](CCC(=O)[*:2])C(=O)[*:1]; Gly(cPr) = N[C@H](C(=O)O)C1CC1; NMeDap = CN[C@@H](CN)C(=O)O; NMeS = CN[C@@H](CO)C(=O)O
Formally, pIC50 is defined as -log10 of the concentration c, with c in mol/L.

Quick check: pIC50 of CC(=O)NCCCC[C@H]1C(=O)N[C@@H](Cc2c[nH]c3ccc(O)cc23)C(=O)N[C@@H](Cc2c[nH]c3ccccc23)C(=O)N[C@@H](C2CC2)C(=O)N(C)[C@H](C(=O)N(C)[C@@H](Cc2ccc(F)cc2)C(N)=O)CNC(=O)CC[C@H](N)C(=O)N[C@@H](Cc2ccc(O)cc2)C(=O)N[C@@H](CO)C(=O)N(C)[C@@H](CCc2ccccc2)C(=O)N1C [Example A32, TFA salt] ?
8.59

Follow-up entry: CN1C(=O)[C@H](CO)NC(=O)[C@H](Cc2ccc(O)cc2)NC(=O)[C@H](CN)CCC(=O)NC[C@@H](C(=O)N(C)[C@@H](Cc2ccc(F)cc2)C(N)=O)N(C)C(=O)[C@H](C2CC2)NC(=O)[C@H](Cc2c[nH]c3ccccc23)NC(=O)[C@H](Cc2c[nH]c3ccc(O)cc23)NC(=O)[C@H](CO)N(C)C(=O)[C@@H]1CCc1ccccc1 [Example A39, TFA salt] (YS[NMehPhe][NMeS][Trp(5-OH)]W[Gly(cPr)][NMeDap][NMePhe(4-F)]-NH2; linker N-8 via X3)
6.36

###

Biological target: mouse HER2 (23-653) (Mus musculus, UniProt P70424)
Experiment: TR-FRET competition assay for peptide potency, mouse HER2
Assay type: binding
Set-up: mouse HER2 (23-653) using a Cy5 labeled peptide as a probe; made in house; host or cells: mammalian cells
Conditions: moHER2 TR-FRET IC50, TR-FRET competition with Cy5 labeled peptide probe, 0.1 nM mouse HER2, 24 h incubation
Structures can show the parent of a compound that is named as a salt. Positions of bridges follow the written chain, without caps; N, C: chain ends. Non-standard residues stand in square brackets, D forms with d. Residues, ends and D or L forms follow the SMILES beside them. Trp(5-OH) = N[C@@H](Cc1c[nH]c2ccc(O)cc12)C(=O)O; NMePhe(4-F) = CN[C@@H](Cc1ccc(F)cc1)C(=O)O; NMehPhe = CN[C@@H](CCc1ccccc1)C(=O)O; Gly(cPr) = N[C@H](C(=O)O)C1CC1; NMeDap = CN[C@@H](CN)C(=O)O; NMeS = CN[C@@H](CO)C(=O)O
metric_name: pIC50
Formally, pIC50 is defined as -log10 of the concentration c, with c in mol/L.

Quick check: pIC50 of COCCOCCOCCOCCOCCOCCOCCOCCOCCOCCOCCOCCC(=O)N[C@H]1CCCC(=O)NC[C@@H](C(=O)N(C)[C@@H](Cc2ccc(F)cc2)C(=O)N[C@@H](CCCCNC(=O)c2ccc([N+](C)(C)C)nc2)C(N)=O)N(C)C(=O)[C@H](C2CC2)NC(=O)[C@H](Cc2c[nH]c3ccccc23)NC(=O)[C@H](Cc2c[nH]c3ccc(O)cc23)NC(=O)[C@H](CCCCNC(C)=O)N(C)C(=O)[C@H](CCc2ccccc2)N(C)C(=O)[C@H](CO)NC(=O)[C@H](Cc2ccc(O)cc2)NC1=O [Example F4, TFA salt] ?
9.52

Follow-up entry: CN1C(=O)[C@H](Cc2ccc(O)cc2)NC(=O)[C@@H](N)CCC(=O)NC[C@@H](C(=O)N(C)[C@@H](Cc2ccc(F)cc2)C(N)=O)N(C)C(=O)[C@H](C2CC2)NC(=O)[C@H](Cc2c[nH]c3ccccc23)NC(=O)[C@H](Cc2c[nH]c3ccc(O)cc23)NC(=O)[C@H](CO)N(C)C(=O)[C@H](CCc2ccccc2)N(C)C(=O)[C@@H]1CO [Example A38, TFA salt] (H-EY[NMeS][NMehPhe][NMeS][Trp(5-OH)]W[Gly(cPr)][NMeDap][NMePhe(4-F)]-NH2; lactam 1-9)
6.69

###

Target: mouse HER2 (23-653) (Mus musculus)
Assay: TR-FRET competition assay for peptide potency, mouse HER2
Type: binding
Parameters: mouse HER2 (23-653) using a Cy5 labeled peptide as a probe; made in house; host or cells: mammalian cells
Conditions: TR-FRET competition with Cy5 labeled peptide probe, 0.1 nM mouse HER2, 24 h incubation; read-out: moHER2 TR-FRET IC50
Protocol: Both proteins containing a His-, Avi-tag and biotin in Nterminus, were expressed in mammalian cells and produced in house. […] Standard assay conditions consist of 20 uL total volume in white 384-well plates (Greiner), in 10 mM HEPES buffer containing 150 mM NaCl, 3 mM EDTA, 0.05% Tween20 and 1% final DMSO. […] The ratiometric FRET assay readout is calculated from the ratio of the raw data of the two distinct fluorescence signals measured in time resolved mode (fluorescence 665 nm/fluorescence 620 nm). […]
pIC50: −log10 of the molar value.
metric_name: pIC50

Quick check: pIC50 of CC(=O)NCCCC[C@H]1C(=O)N[C@@H](Cc2c[nH]c3ccc(O)cc23)C(=O)N[C@@H](Cc2c[nH]c3ccccc23)C(=O)N[C@@H](C2CC2)C(=O)N(C)[C@H](C(=O)N(C)[C@@H](Cc2ccc(F)cc2)C(=O)N[C@@H](CCCCNC(=O)CN2CCN(CC(=O)O)CCN(CC(=O)O)CCN(CC(=O)O)CC2)C(N)=O)CNC(=O)CCC[C@H](NC(C)=O)C(=O)N[C@H](Cc2ccc(O)cc2)C(=O)N[C@H](CO)C(=O)N(C)[C@@H](CCc2ccccc2)C(=O)N1C [Example B4] ?
< 6.00

###

Target: mouse HER2 (23-653) (Mus musculus, UniProt P70424)
Assay: Surface plasmon resonance (SPR) for assessment of peptide affinity, mouse HER2
Type: binding
Parameters: mouse HER2 (23-653) using a Cy5 labeled peptide as a probe; made in house
Details: SPR, mouse HER2 extracellular domain, 25° C., 1:1 binding model; read-out: moHER2-SPR-ONC KD
Structures can show the parent of a compound that is named as a salt. Positions of bridges follow the written chain, without caps; N, C: chain ends. Non-standard residues stand in square brackets, D forms with d. Residues, ends and D or L forms follow the SMILES beside them. Trp(5-OH) = N[C@@H](Cc1c[nH]c2ccc(O)cc12)C(=O)O; NMePhe(4-F) = CN[C@@H](Cc1ccc(F)cc1)C(=O)O; NMehPhe = CN[C@@H](CCc1ccccc1)C(=O)O; Aad = N[C@@H](CCCC(=O)O)C(=O)O; Gly(cPr) = N[C@H](C(=O)O)C1CC1; NMeDap = CN[C@@H](CN)C(=O)O; NMeS = CN[C@@H](CO)C(=O)O
For each of the molecules below, state its Kd.
Provide the reading as a plain figure in µM.

Quick check: Kd of CC(=O)NCCCC[C@H]1C(=O)N[C@@H](Cc2c[nH]c3ccc(O)cc23)C(=O)N[C@@H](Cc2c[nH]c3ccccc23)C(=O)N[C@@H](C2CC2)C(=O)N(C)[C@H](C(=O)N(C)[C@@H](Cc2ccc(F)cc2)C(=O)N[C@@H](CCCCNC(=O)CN2CCN(CC(=O)O)CCN(CC(=O)O)CCN(CC(=O)O)CC2)C(N)=O)CNC(=O)CCC[C@H](NC(C)=O)C(=O)N[C@H](Cc2ccc(O)cc2)C(=O)N[C@H](CO)C(=O)N(C)[C@@H](CCc2ccccc2)C(=O)N1C [Example C36] ?
0.472

Follow-up entry: CN1C(=O)[C@H](CO)NC(=O)[C@H](Cc2ccc(O)cc2)NC(=O)[C@@H](N)CCCC(=O)NC[C@@H](C(=O)N(C)[C@@H](Cc2ccc(F)cc2)C(N)=O)N(C)C(=O)[C@H](C2CC2)NC(=O)[C@H](Cc2c[nH]c3ccccc23)NC(=O)[C@H](Cc2c[nH]c3ccc(O)cc23)NC(=O)[C@H](CO)N(C)C(=O)[C@@H]1CCc1ccccc1 [Example A36, TFA salt] (H-[Aad]YS[NMehPhe][NMeS][Trp(5-OH)]W[Gly(cPr)][NMeDap][NMePhe(4-F)]-NH2; lactam 1-9)
0.034

Follow-up entry: COCCOCCOCCOCCOCCOCCOCCOCCOCCOCCOCCOCCC(=O)N[C@H]1CCCC(=O)NC[C@@H](C(=O)N(C)[C@@H](Cc2ccc(F)cc2)C(=O)N[C@@H](CCCCNC(=O)CN2CCN(CC(=O)O)CCN(CC(=O)O)CCN(CC(=O)O)CC2)C(N)=O)N(C)C(=O)[C@H](C2CC2)NC(=O)[C@H](Cc2c[nH]c3ccccc23)NC(=O)[C@H](Cc2c[nH]c3ccc(O)cc23)NC(=O)[C@H](CCCCNC(C)=O)N(C)C(=O)[C@H](CCc2ccccc2)N(C)C(=O)[C@H](CO)NC(=O)[C@H](Cc2ccc(O)cc2)NC1=O [Example B2]
0.0001

Follow-up entry: CC(=O)N[C@H]1CCCC(=O)NC[C@@H](C(=O)N(C)[C@@H](Cc2ccc(F)cc2)C(N)=O)N(C)C(=O)[C@H](C2CC2)NC(=O)[C@H](Cc2c[nH]c3ccccc23)NC(=O)[C@H](Cc2c[nH]c3ccc(O)cc23)NC(=O)[C@H](CO)N(C)C(=O)[C@H](CCc2ccccc2)N(C)C(=O)[C@H](CO)NC(=O)[C@H](Cc2ccc(O)cc2)NC1=O [Example A29] (Ac-[Aad]YS[NMehPhe][NMeS][Trp(5-OH)]W[Gly(cPr)][NMeDap][NMePhe(4-F)]-NH2; lactam 1-9)
0.027

Follow-up entry: CC(=O)NCCCC[C@H]1C(=O)N[C@@H](Cc2c[nH]c3ccc(O)cc23)C(=O)N[C@@H](Cc2c[nH]c3ccccc23)C(=O)N[C@@H](C2CC2)C(=O)N(C)[C@H](C(=O)N(C)[C@@H](Cc2ccc(F)cc2)C(=O)N2CCC[C@H]2C(N)=O)CNC(=O)CCC[C@H](NC(C)=O)C(=O)N[C@@H](Cc2ccc(O)cc2)C(=O)N[C@@H](CO)C(=O)N(C)[C@@H](CCc2ccccc2)C(=O)N1C
0.0002

Follow-up entry: CC(=O)N[C@H]1CCCC(=O)NC[C@@H](C(=O)N(C)[C@@H](Cc2ccc(F)cc2)C(=O)N[C@@H](CCCCNC(=O)CN2CCN(CC(=O)O)CCN(CC(=O)O)CCN(CC(=O)O)CC2)C(N)=O)N(C)C(=O)[C@H]([C@H](C)O)NC(=O)[C@H](Cc2c[nH]c3ccccc23)NC(=O)[C@H](Cc2c[nH]c3ccc(O)cc23)NC(=O)[C@H](CCCCNC(=O)CO)N(C)C(=O)[C@H](CCc2ccccc2)N(C)C(=O)[C@H](CO)NC(=O)[C@H](Cc2ccc(O)cc2)NC1=O [Example C21]
0.0007

Follow-up entry: CC(=O)NCCCC[C@H]1C(=O)N[C@@H](Cc2c[nH]c3ccc(O)cc23)C(=O)N[C@@H](Cc2c[nH]c3ccccc23)C(=O)N[C@@H]([C@H](C)O)C(=O)N(C)[C@H](C(=O)N(C)[C@@H](Cc2ccc(F)cc2)C(=O)N[C@@H](CCCCNC(=O)N2CCN(CC(=O)O)CC2)C(=O)N[C@H](CCCCNC(=O)CN2CCN(CC(=O)O)CCN(CC(=O)O)CCN(CC(=O)O)CC2)C(N)=O)CNC(=O)CC[C@H](NC(C)=O)C(=O)N[C@@H](Cc2ccc(O)cc2)C(=O)N[C@@H](CO)C(=O)N(C)[C@@H](CCc2ccccc2)C(=O)N1C
0.039

Follow-up entry: CC(=O)N[C@H]1CCC(=O)NC[C@@H](C(=O)N(C)[C@@H](Cc2ccc(F)cc2)C(N)=O)N(C)C(=O)[C@H](C2CC2)NC(=O)[C@H](Cc2c[nH]c3ccccc23)NC(=O)[C@H](Cc2c[nH]c3ccc(O)cc23)NC(=O)[C@H](CO)N(C)C(=O)[C@H](CCc2ccccc2)N(C)C(=O)[C@H](CO)NC(=O)[C@H](Cc2ccc(O)cc2)NC1=O
0.093
